test.description: Dissolution studies of Lasofoxifene in organic solvents and surfactants
Format: physicochemical
stated.conditions: Lasofoxifene 3 mg/ml in the labelled solvent/surfactant; visual examination
result.type: Dissolution of Lasofoxifene in various organic solvents and surfactants, 3 mg/ml

Record excerpt, results attached:
compound="OCC(O)CO [Glycerol 99%, Glycerol]" measured="not dissolved"
compound="C[S+](C)[O-] [DMSO, dimethyl sulfoxide]" measured=dissolved
compound="CCOCCOCCO [Transcutol (TC), Diethylene glycol monoethyl ether]" measured=dissolved
compound="OCC(O)CO [Glycerol 85%, Glycerol]" measured="not dissolved"

Proceeding to the next compound to report its Dissolution of Lasofoxifene in various organic solvents and surfactants, 3 mg/ml.
Return the recorded Dissolution of Lasofoxifene in various organic solvents and surfactants, 3 mg/ml value; entry: CO[C@H]1CO[C@H]2[C@@H]1OC[C@H]2OC [Isosorbide dimethyl ether (DMI), Isosorbide dimethyl ether]
not dissolved

###

test.description: Dissolution studies of Lasofoxifene in organic solvents and surfactants
Assay type: physicochemical
stated.conditions: Lasofoxifene 2 mg/ml in the labelled solvent/surfactant; visual examination
result.type: Dissolution of Lasofoxifene in various organic solvents and surfactants, 2 mg/ml

Record excerpt, results attached:
molecule="OCC(O)CO [Glycerol 85%, Glycerol]" measured=partially
molecule="OCC(O)CO [Glycerol 99%, Glycerol]" measured=partially
molecule="C[S+](C)[O-] [DMSO, dimethyl sulfoxide]" measured=dissolved
molecule="CCOCCOCCO [Transcutol (TC), Diethylene glycol monoethyl ether]" measured=dissolved

Return the recorded Dissolution of Lasofoxifene in various organic solvents and surfactants, 2 mg/ml value; entry: CO[C@H]1CO[C@H]2[C@@H]1OC[C@H]2OC [Isosorbide dimethyl ether (DMI), Isosorbide dimethyl ether]
partially

###

test.description: Dissolution studies of Lasofoxifene in organic solvents and surfactants
Assay type: physicochemical
stated.conditions: Lasofoxifene 1 mg/ml in the labelled solvent/surfactant; visual examination
Where a name gives a salt, the structure may show the parent alone.
result.type: Dissolution of Lasofoxifene in various organic solvents and surfactants, 1 mg/ml

Record excerpt, results attached:
compound="CCCCOC(=O)CC(CC(=O)OCCCC)(OC(C)=O)C(=O)OCCCC [Tributyl acetyl citrate (TBAC), Tributyl acetyl citrate]" measured="not dissolved"
compound="C[S+](C)[O-] [DMSO, dimethyl sulfoxide]" measured=dissolved
compound="CCOC(=O)CC(O)(CC(=O)OCC)C(=O)OCC [Triethyl citrate (TEC), Triethyl citrate]" measured="not dissolved"
compound="CCOCCOCCO [Transcutol (TC), Diethylene glycol monoethyl ether]" measured=dissolved
compound="OCC(O)CO [Glycerol 99%, Glycerol]" measured=dissolved*

Here are 5 compounds. What values of Dissolution of Lasofoxifene in various organic solvents and surfactants, 1 mg/ml were reported for them?
1. CCCCCCCC/C=C\CCCCCCCC(=O)OCC [Ethyloleate]
2. CO[C@H]1CO[C@H]2[C@@H]1OC[C@H]2OC [Isosorbide dimethyl ether (DMI), Isosorbide dimethyl ether]
3. CCCCOC(=O)CC(O)(CC(=O)OCCCC)C(=O)OCCCC [Tributyl citrate (TBC), Tributyl citrate]
4. CCOC(=O)CC(CC(=O)OCC)(OC(C)=O)C(=O)OCC [Triethyl acetyl citrate (TEAC), Triethyl acetyl citrate]
5. OCC(O)CO [Glycerol 85%, Glycerol]

["not dissolved", "dissolved*", "not dissolved", "not dissolved", "dissolved"]

Return the recorded Dissolution of Lasofoxifene in various organic solvents and surfactants, 1 mg/ml value; entry: CC(O)CO (centres unmarked)
dissolved
